The values you see were collected from ChEMBL document CHEMBL1138088.

# test name: Central volume of distribution in rat at 0.5 mg/kg, iv
# Format: ADME, organism-based
# Set-up: dose 0.5 mg/kg, route intravenous
# details: in vivo, read-out: Vc
property name: Vd
Please state the value followed by its unit.

Any idea what Vd was measured for `Cl.NCCCC[C@H](NC(=O)c1ccc(F)cc1)C(=O)c1noc(Cc2ccc(OCCc3ccc(Cl)c(Cl)c3)cc2)n1` ?
0.457 L/kg

----------
# test name: Cmax in rat at 0.5 mg/kg, iv
# Assay type: ADME, organism-based
# Design: dose 0.5 mg/kg, route intravenous
# details: in vivo
property name: Cmax (nM)
Give just the number in nM; leave the unit off.

Any idea what Cmax was measured for `Cl.NCCCC[C@H](NC(=O)c1ccc(F)cc1)C(=O)c1noc(Cc2ccc(OCCc3ccc(Cl)c(Cl)c3)cc2)n1` ?
1010
